Values compiled from patent US20240262804A1.

- SUBJECT_OF_TEST: bovine skinned cardiac myofibrils (myosin) (Bos taurus (Bovine), UniProt Q9BE39)
- Sequence (Q9BE39 whole entry): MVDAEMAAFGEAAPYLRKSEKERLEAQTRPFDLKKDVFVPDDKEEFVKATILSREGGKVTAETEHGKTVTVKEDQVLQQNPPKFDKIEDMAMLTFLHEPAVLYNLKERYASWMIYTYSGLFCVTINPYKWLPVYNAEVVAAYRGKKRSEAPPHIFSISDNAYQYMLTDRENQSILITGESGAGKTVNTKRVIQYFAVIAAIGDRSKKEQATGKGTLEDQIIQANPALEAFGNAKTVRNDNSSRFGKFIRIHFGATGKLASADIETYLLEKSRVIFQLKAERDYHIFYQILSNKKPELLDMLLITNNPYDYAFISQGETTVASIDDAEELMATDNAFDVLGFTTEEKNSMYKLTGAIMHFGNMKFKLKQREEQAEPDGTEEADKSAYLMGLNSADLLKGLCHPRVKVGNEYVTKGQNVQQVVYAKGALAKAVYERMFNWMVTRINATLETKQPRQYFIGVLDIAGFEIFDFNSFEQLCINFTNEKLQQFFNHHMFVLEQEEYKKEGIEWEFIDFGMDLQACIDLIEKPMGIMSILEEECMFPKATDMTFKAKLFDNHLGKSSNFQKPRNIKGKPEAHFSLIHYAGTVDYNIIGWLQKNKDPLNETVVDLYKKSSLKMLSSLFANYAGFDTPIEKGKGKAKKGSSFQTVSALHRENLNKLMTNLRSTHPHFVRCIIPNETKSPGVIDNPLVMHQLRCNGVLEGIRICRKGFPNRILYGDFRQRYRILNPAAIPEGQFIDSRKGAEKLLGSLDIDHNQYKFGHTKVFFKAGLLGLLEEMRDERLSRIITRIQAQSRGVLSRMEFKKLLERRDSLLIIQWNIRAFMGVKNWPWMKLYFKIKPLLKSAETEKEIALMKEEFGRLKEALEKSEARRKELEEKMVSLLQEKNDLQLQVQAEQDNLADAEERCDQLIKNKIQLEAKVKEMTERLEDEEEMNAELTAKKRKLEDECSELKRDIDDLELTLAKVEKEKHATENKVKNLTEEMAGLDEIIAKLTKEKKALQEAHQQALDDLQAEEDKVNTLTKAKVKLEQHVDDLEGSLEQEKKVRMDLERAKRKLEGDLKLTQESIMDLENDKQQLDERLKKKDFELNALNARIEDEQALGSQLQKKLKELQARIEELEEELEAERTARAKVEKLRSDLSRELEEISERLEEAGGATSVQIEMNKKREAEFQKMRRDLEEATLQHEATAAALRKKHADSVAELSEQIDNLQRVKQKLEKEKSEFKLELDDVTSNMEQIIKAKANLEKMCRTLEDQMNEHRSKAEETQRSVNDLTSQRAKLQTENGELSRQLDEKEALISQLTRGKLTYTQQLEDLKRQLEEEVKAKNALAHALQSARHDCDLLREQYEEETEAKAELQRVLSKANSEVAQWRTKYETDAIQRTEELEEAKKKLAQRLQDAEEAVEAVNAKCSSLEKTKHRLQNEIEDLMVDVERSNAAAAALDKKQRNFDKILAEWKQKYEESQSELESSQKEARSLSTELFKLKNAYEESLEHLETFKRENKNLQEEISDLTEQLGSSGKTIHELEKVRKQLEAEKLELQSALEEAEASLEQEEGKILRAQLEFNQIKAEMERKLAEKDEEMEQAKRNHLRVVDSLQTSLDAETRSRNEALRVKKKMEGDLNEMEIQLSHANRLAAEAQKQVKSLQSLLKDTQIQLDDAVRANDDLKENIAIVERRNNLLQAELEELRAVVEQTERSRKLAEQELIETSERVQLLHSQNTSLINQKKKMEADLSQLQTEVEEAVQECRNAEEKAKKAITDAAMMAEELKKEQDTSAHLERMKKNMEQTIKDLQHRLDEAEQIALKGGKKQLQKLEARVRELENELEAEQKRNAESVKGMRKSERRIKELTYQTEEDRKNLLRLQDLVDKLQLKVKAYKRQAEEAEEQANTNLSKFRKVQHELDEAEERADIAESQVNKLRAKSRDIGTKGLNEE
- Sequence (P85100 whole entry partner): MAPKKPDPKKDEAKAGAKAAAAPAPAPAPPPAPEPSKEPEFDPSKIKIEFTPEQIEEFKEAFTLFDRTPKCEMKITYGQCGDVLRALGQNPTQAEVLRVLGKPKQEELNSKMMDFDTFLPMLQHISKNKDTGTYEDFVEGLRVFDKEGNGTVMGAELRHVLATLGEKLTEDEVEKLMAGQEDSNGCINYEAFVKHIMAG
- Sequence (Q3SZE5 whole entry partner): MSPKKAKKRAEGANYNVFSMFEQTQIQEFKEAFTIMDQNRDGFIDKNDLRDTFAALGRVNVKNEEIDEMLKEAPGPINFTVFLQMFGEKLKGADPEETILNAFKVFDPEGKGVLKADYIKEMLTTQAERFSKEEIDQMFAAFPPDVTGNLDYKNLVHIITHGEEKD
- ASSAY_COMMENT: Myosin inhibitory potency comparison: ATPase assay, cardiac myofibrils
- CONDITION_SUMMARY: pCa=6.25
RECORDED_ENDPOINT: IC50

Below: 3 molecules and their reported IC50.
TEST_SMILES	RECORDED_ENDPOINT	TEST_VALUE
C[C@H](Nc1nc(=O)n(C2CCOCC2)c(=O)[nH]1)c1ccc(F)cc1F	IC50	1500 nM
CC(C)n1c(=O)nc(N[C@@H](C)C2CCCCC2)[nH]c1=O	IC50	7580 nM
C[C@H](Nc1nc(=O)n(C2CCOCC2)c(=O)[nH]1)c1ccc(OC(F)(F)F)cc1	IC50	1790 nM

Consider the additional molecule presented here.
Query: Param readout = IC50; param system = bovine skinned cardiac myofibrils (myosin) (Bos taurus (Bovine), UniProt Q9BE39); param query = `Cc1cccc([C@H](C)Nc2nc(=O)n(C3CCOCC3)c(=O)[nH]2)c1` ; response: value
Response: 660 nM
